test.name: soluble fraction after stress (log2 fold change); higher = more stays soluble; pooled small domains, quantitative proteomics;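 further: 20 min heating vs room temperature control held 20 min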
assay.conditions: stress: 75 degC
Provide the recorded soluble fraction (log2) for the entries that follow.
Answers are plain numbers.

Below, each entry is followed by its recorded soluble fraction (log2) result.
HMSQLTVGTVVTGNASLQTQGLKLPSFASGSRPASPNIGQMIWNSSDAKAQIWNGSEWDDVG; -0.0784
HMAATNVKVPDLKGWDYNNAVGKYGDKLSFVKKSIYSDSVSKGIIIYNARVGETVAQGTTIEVTVSLGPKG; -1.46
HMIKNDIGKFIKLYRETHQWSQRELAEHLGVSQRNVSYYEKGERIPPADVLKKLSTLFDVPVDVLLGLK; -1.18
HMRSFGTLRRLPSGRYQASYAGPDLRRHAAPTTFETKLDAEGWLRDEHRMIERDEWTAPAARSQLK; -0.0721
HMGRRRAAPQEPLRQFPASPVTGQPIKLLLGQYGPYVTDGTTNASLPKGSSPDELTFEQATQLLAERALRG; 0.0333
HMNKNQIGTNAGIVWKLLSDNVHWEYDKLKHASGLSDRDLNAAIGWLAREDKIDFDIDEQHDRLFL; -0.515
HMSFYSVVISQDGSMLVAENRNEIYSNEELLELASEVNEKTGTIGTIGSLMYYKADKGGYTLITFLDNS; -4.18
HMSMLGTEQRVLVLGPARKGEGFLMARTDNNRIVNFEGPLSLVDTMVRVKVTDVYPHSLGGQLL; -1.51
HMGKQPLYEQLVDLLRDRIENDMETGELLPSERKLAHHFGLSRTTVRLAMDRLETLGLITRVHGKDTFVAE; -1.52
HMYTGSEGMAGLEGRAVTEVGPEAGTVLVKGEYWQARSDEPIATDRKIRVIRLEGLRLRVAEIHPEG; -0.45

Batch request: soluble fraction (log2) for each of the following sequences.
1. HMKGLKERLLYFIEYKGLPVQMFEKIVGLSNAAVSKMGDNTRRSTIDKISKSFPELDVNWLLTGQGEMLSY
2. HMHDIPDITDLRPLRHTLGLTLAHAAQQLNTTTATISRLERGQHRNDHLATTYRTWLHTHPT

1: -0.942; 2: -0.291
